System: NOMO1
Protocol details: cell viability relative to DMSO control; higher = less cytotoxic
Condition parameters: HPLM + 10% dialyzed FBS; 48 h; 0.0632 µM
Measurement name: cell viability (%)
Express it in %; write the number only.

Ask | What value of measured cell viability is listed for CO/C1=C/C(C)=C\[C@@H](C)[C@@H](O)[C@@H](C)C/C(C)=C\C=C/[C@H](OC)[C@@H]([C@@H](C)[C@@H](O)[C@H](C)[C@@]2(O)C[C@@H](O)[C@H](C)[C@@H](C(C)C)O2)OC1=O ?
Reply | 58.8

Ask | Input CC[C@@]1(O)C(=O)OC\C2=C1\C=C\3N(CC4=C3N=C5C=CC=CC5=C4)C2=O
Reply | 80.4

Ask | Input COc1ccc(Nc2nccc(NCCO)n2)cc1
Reply | 86

Ask | Input CN1CCCC(CC1)N2\N=C(CC3=CC=C(Cl)C=C3)/C4=C(C=CC=C4)C2=O (stereo not drawn)
Reply | 127

Ask | Input CCC(=C/[C@H](C)C/C=C/C(C)=C/[C@@H](C)C(=O)[C@@H](C)[C@H](O)[C@@H](C)C/C(C)=C/C(=O)O)/C=C/[C@@H]1OC(=O)C=C[C@@H]1C
Reply | 118

Ask | Input COc1ccc([C@@H]2CC(=O)c3c(O)cc(O[C@@H]4O[C@H](CO[C@@H]5O[C@@H](C)[C@H](O)[C@@H](O)[C@H]5O)[C@@H](O)[C@H](O)[C@H]4O)cc3O2)cc1O
Reply | 115

Ask | Input CC(C)c1ccc(Cn2ccc3c4c(N)nc(NC5CC5)nc4ccc32)cc1
Reply | 126

Ask | Input C[C@H]1[C@@H](C(=O)C[C@H]2O[C@@H]3O[C@]4(C)CC[C@H]5[C@H](C)CC[C@@H]([C@H]2C)[C@@]35OO4)O[C@@H]2O[C@]3(C)CC[C@H]4[C@H](C)CC[C@@H]1[C@@]24OO3
Reply | 127

* * *

Answer each item with its documented cell viability.
System: NOMO1
Protocol details: cell viability relative to DMSO control; higher = less cytotoxic
Condition parameters: RPMI 5 mM glucose + 10% dialyzed FBS; 48 h; 0.19 µM
Express it in %; write the number only.

Ask | What value of measured cell viability is listed for O=C(O)/C=C/c1ccc(O)c(O)c1 ?
Reply | 115

Ask | Input ClC1=CC\2=C(OC3=C(C=CC=C3)\N=C2N4CCNCC4)C=C1
Reply | 90.7

Ask | Input CN(C)CCN(C)C(=O)c1ccc(NC(=O)Nc2ccc(-c3nc(N4CCOCC4)c4ccn(CC(F)(F)F)c4n3)cc2)cc1
Reply | 78.5

Ask | Input COc1cc2nc(-c3cc(F)ccc3O)nc(N[C@@H]3CNC[C@H]3C(C)(C)O)c2cc1OC
Reply | 112

Ask | Input Nc1nnc(-c2cccc(Cl)c2Cl)c(N)n1
Reply | 93.1

* * *

Test system: SEM cells
Protocol details: cell viability relative to DMSO control; higher = less cytotoxic
Condition parameters: RPMI 5 mM glucose + 10% FBS; 48 h; 0.569 µM
Answer each item with its documented cell viability.
Express it in %; write the number only.

Ask | What value of measured cell viability is listed for NC(=O)c1cccc2cn(-c3ccc([C@@H]4CCCNC4)cc3)nc12 ?
Reply | 119

Ask | Input CNCc1ccc(-c2[nH]c3cc(F)cc4c3c2CCNC4=O)cc1
Reply | 143

Ask | Input NC(=O)c1cccc2nc(-c3ccc([C@H]4CCCN4)cc3F)[nH]c12
Reply | 98.3

Ask | Input O=C(Nc1ncc(-c2cc(C(F)F)nn2-c2c(Cl)cccc2Cl)s1)C1CC1
Reply | 124

Ask | Input CC(C)C[C@H](NC(=O)CNC(=O)c1cc(Cl)ccc1Cl)B(O)O
Reply | 7.76

Ask | Input CC(/C=C/C(=O)NO)=C\[C@@H](C)C(=O)c1ccc(N(C)C)cc1
Reply | 66.2

Ask | Input Cc1csc(NC(=O)c2sc3nc4c(c(C(F)(F)F)c3c2N)CCC4)n1
Reply | 106

Ask | Input Cc1[nH]c(/C=C2\C(=O)Nc3ccccc32)c(C)c1CCC(=O)O
Reply | 6.07

Ask | Input O=C(O)CCn1c2c(c3ccccc31)C[C@H](N[S+](=O)([O-])c1ccc(F)cc1)CC2
Reply | 86.7

The measured values listed here are drawn from the supplement of paper PMC11451515.
